- tested-system: T1, Human IL-33-his (human, UniProt O95760 112-270, biotinylated with EZ-Link NHS-Biotin where used as IL-33-his-biotin)
- T1 construct: Used plain (SPR, cell assays) and biotinylated (ELISA); also called IL-33-his-biotin
- T1 sequence: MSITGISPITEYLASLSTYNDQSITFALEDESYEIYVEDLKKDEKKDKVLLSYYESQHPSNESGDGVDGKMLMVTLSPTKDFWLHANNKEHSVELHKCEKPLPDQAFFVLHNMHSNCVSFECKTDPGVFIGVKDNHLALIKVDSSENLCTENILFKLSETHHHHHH
- assay-summary: SPR Biacore 8K, antibody captured on Protein A/G chip, IL-33-his as analyte, 1:1 model
property-measured: koff (s⁻¹)
Just the number please, in s⁻¹, no unit attached.

Answered cases to consult:
864F3-Hu4 (antibody, human IgG4 S228P, kappa, V domains shown, Humanized; also called humanized antibody 864F3-Hu4) VH: QVQLQESGPGLVKPSETLSLTCTVSGFSLSKYGVHWIRQPPGKGLEWIGVLRAGGTISYNSALMSRVTISEDISKSQVSLKLSSVTAADTAVYYCARDHYYYSSFGGFASWGQGTLVTVSS VL: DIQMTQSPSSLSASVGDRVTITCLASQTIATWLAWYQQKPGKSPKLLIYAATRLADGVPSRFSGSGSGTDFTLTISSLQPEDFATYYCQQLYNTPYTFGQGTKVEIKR    0.000447
871G1-Hu1 (antibody, human IgG4 S228P, kappa, V domains shown, Humanized; also called humanized antibody 871G1-Hu1) VH: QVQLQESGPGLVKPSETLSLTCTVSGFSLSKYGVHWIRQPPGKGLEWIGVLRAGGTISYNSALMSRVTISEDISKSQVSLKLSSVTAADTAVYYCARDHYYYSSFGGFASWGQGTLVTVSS VL: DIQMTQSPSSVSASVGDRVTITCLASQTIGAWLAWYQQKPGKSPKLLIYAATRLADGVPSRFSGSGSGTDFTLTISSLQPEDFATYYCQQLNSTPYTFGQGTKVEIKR    0.000504
871G1-Hu2 (antibody, human IgG4 S228P, kappa, V domains shown, Humanized; also called humanized antibody 871G1-Hu2) VH: QVQLQESGPGLVKPSETLSLTCTVSGFSLSKYGVHWIRQPPGKGLEWLGVLRAGGTISYNSALMSRLTISEDISKSQVSLKLSSVTAADTAVYYCARDHYYYSSFGGFASWGQGTLVTVSS VL: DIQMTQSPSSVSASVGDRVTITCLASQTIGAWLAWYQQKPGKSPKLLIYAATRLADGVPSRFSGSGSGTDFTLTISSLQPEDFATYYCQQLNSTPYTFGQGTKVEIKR    0.000527

Kindly review the next binder as well.
Note to self: koff recorded for 874F7-Hu2 (antibody, human IgG4 S228P, kappa, V domains shown, Humanized; also called humanized antibody 874F7-Hu2) VH: QVQLQESGPGLVKPSETLSLTCTVSGFSLSKYGVHWIRQPPGKGLEWLGVLRAGGSTGYNSALMSRLTISKDSSKSQVSLKLSSVTAADTAVYYCVRDHYYYSSYGGFVYWGQGTLVTVSS VL: DIQMTQSPSSVSASVGDRVTITCLASQTIGAWLAWYQQKPGKSPKLLIYAATRLADGVPSRFSGSGSGTDFTLTISSLQPEDFATYYCQQLDSSPYTFGQGTKVEIKR was 0.000576
